Where these numbers come from: paper PMC6058525

Test: Plasma pharmacokinetics after i.v. injection
Assay type: in vivo
Conditions: rat, iv, rats, 10 mg/kg Rhein equivalent, read-out: VZ
Method: Rhein or TPD-Rhein was injected through the tail vein of rats. […] For Rhein treated rats, the content of Rhein in the homogenates was measured by LC-MS/MS. […] The pharmacokinetic data were calculated using the DAS software version 2.0 (Mathematical Pharmacology Professional Committee of China, Shanghai, China). […] The values of Re and Ce were calculated as follows: Relung=(AUC0-t, lung)TPD-Rhein/(AUC0-t, lung)Rhein Celung=(Cmax, lung)TPD-Rhein/(Cmax, lung)Rhein
property name: Vd (L/kg)
Numbers only, in L/kg.

Input: State its Vd: O=C(O)c1cc(O)c2c(c1)C(=O)c1cccc(O)c1C2=O [Rhein]
Output: 0.47

---

Assay: Plasma pharmacokinetics after i.v. injection
Type: in vivo
Details: rat, iv, rats, 10 mg/kg Rhein equivalent
property name: AUC(0-t) (µM·h)
Numbers only, in µM·h.

Input: State its AUC(0-t): O=C(O)c1cc(O)c2c(c1)C(=O)c1cccc(O)c1C2=O [Rhein]
Output: 206

---

Experiment: Aqueous solubility in PBS
Assay type: physicochemical
Settings: 25 °C, pH 2, aqueous buffer, thermodynamic from solid, PBS pH 2.0, 25 °C
property name: solubility at 12 h (µg/mL)
Give bare numbers, in µg/mL.

Input: State its solubility at 12 h: O=C(O)c1cc(O)c2c(c1)C(=O)c1cccc(O)c1C2=O [Rhein]
Output: 3.56

---

Assay: In vitro cytotoxicity, MTT assay
Format: cell-based
Details: human, A549 cells, under tested concentrations, read-out: A549 cells remaining viable
property name: viability at 4 h

Input: State its viability at 4 h: CN(C)CCCN(C)Cc1ccc(O)cc1
Output: > 90%

---

Tested on: A549 cells
Experiment: Cellular uptake of TPD-Rhein in the presence of transporter inhibitors
Type: cell-based, human
Details: A549 cells preincubated 1 h with inhibitor 189 μM, then TPD-Rhein 18.9 μM 1 h; vs control without inhibitor
property name: effect of inhibitor on cellular uptake of TPD-Rhein

Record excerpt, results attached:
compound="CC[N+](CC)(CC)CC.[Cl-] [Tetraethylammonium (TEA) chloride]" reported_measurement="significantly reduced"
compound=NCCCCNCCCN reported_measurement="no obvious impact"
compound=N=C(N)NCCC[C@H](N)C(=O)O reported_measurement="no obvious impact"
compound=C[N+](C)(C)C[C@H](O)CC(=O)[O-] reported_measurement="no obvious impact"
compound=COc1ccc(CN(CCN(C)C)c2ccccn2)cc1 reported_measurement="no obvious impact"
compound=NCCCC[C@H](N)C(=O)O reported_measurement="no obvious impact"
compound=NCCCNCCCCNCCCN reported_measurement="no obvious impact"
compound=C[N+](C)(C)CCO reported_measurement="no obvious impact"

Input: State its effect of inhibitor on cellular uptake of TPD-Rhein: CN(C)CCCN1c2ccccc2CCc2ccccc21
Output: significantly reduced
